Reference source for all entries: PubChem BioAssay

For each of the compounds below, state its composite z-score.
# Experimental System: Epidermal growth factor receptor (Homo sapiens) (UniProt P00533)
# Sequence (P00533 whole entry, looked up): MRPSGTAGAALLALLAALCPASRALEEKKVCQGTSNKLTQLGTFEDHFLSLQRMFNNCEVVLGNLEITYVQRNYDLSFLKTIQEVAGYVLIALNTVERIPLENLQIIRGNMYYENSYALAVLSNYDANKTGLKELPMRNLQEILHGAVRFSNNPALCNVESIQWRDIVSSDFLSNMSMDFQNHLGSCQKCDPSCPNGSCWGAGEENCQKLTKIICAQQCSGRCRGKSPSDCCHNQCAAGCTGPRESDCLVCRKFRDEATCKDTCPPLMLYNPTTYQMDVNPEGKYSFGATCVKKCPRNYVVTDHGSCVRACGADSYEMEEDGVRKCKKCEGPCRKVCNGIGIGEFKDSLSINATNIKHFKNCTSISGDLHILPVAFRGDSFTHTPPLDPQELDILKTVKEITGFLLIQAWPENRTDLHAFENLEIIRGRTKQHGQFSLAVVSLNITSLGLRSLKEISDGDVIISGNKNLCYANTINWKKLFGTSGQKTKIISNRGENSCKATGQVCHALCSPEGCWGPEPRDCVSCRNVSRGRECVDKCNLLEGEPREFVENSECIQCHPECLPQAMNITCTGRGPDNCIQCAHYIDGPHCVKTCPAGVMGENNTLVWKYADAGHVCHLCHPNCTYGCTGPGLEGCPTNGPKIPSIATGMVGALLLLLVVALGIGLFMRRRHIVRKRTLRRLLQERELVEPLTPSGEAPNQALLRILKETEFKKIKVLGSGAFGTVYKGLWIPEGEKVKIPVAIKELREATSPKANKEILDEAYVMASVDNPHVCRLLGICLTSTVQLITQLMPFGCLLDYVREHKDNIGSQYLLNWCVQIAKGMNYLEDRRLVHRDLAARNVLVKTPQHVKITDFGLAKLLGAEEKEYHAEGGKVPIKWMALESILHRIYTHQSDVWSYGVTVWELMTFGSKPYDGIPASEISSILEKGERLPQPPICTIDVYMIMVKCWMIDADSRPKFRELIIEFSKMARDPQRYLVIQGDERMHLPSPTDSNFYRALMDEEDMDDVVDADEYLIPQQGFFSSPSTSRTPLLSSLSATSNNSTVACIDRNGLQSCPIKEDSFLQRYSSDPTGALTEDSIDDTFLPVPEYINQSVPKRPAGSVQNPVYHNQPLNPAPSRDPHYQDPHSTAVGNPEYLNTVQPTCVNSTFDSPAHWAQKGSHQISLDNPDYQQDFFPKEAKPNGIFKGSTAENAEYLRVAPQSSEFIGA
# Assay Method Text: compounds binding epidermal growth factor receptor – biochemical, small-molecule microarray, 635 nm fluorescence, primary screen (AID 1104);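 further: score merges 667 nm emission intensity with spot signal to noise over triplicate slides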
# Run Parameters: EGFR binding, higher = more signal

Below: 4 compounds and their reported composite z-score.
CN(C)C(=O)[C@@]1(Cc2ccccc2N=[N+]=[N-])N=C(c2ccc(OCCCO)cc2)O[C@H]1c1ccccc1N=[N+]=[N-] = 0.284
CC(C)c1ccc(NN2C(C(O)c3cccs3)C=CC3C(=O)N(c4ccccc4)C(=O)C32)cc1 (stereo not given) = 0.156
Cc1ccc(S[C@]2(C(=O)NCCN3CCOCC3)CC(=O)N(C3Cc4ccccc4C3)[C@@H]2c2ccc(CO)cc2)cc1 = -1
COCCCNC(=O)[C@]1(Cc2ccccc2CN=[N+]=[N-])N=C(c2ccc(OCCCO)cc2)O[C@@H]1c1ccccc1CN=[N+]=[N-] = 0.119

I'm hoping you can list composite z-score for every compound here, please.
1. COC(=O)C(CC#Cc1ccc2c(c1)[C@]1(C(=O)N2)[C@H](C(=O)N2CCc3cc(OC)c(OC)cc3C2)[C@H]2C(=O)O[C@H](c3ccccc3)[C@H](c3ccccc3)N2[C@@H]1c1ccc(O)cc1)C(=O)OC
2. CC(C)CCC[C@@H](C)[C@H]1CC[C@@]2(C)C3=C(CC[C@]12C)[C@@]1(C)CC[C@H](OC(=O)c2ccc(N)cc2)C(C)(C)C1CC3 (stereo not given in full)
3. O=C1O[C@H](c2ccccc2)[C@H](c2ccccc2)N2[C@H]1[C@@H](C(=O)N1CCCCCCC1)[C@]1(C(=O)Nc3ccc(C#CCCO)cc31)[C@H]2c1ccc(OCCO)cc1
4. O=C1NC(=O)C2C1C=CC(C(O)c1ccc3c(c1)OCO3)N2Nc1ccc(Cl)cc1Cl (stereo not given)
5. CCC[C@@H]1C[C@@]1(CCC)[C@@H](NC(=O)c1ccco1)c1ccc(Cl)cc1
6. C[C@]12C(=O)N(CCCCCO)[C@@H]3C(=O)N(c4ccc(Cl)cc4)CC=CC31O[C@@H]1/C=C\CCCOC(=O)C12 (stereo not given in full)
7. C=C(/C(=C/C[C@@H](OC(=O)c1ccncc1)c1cccc(OCCO)c1)c1cc(C(=O)OC)ccc1OC)C(C)C

Resp:
0.919
0.614
1.89
0.205
-0.414
-1.22
-0.0516

* * *

Could you please report measured z-score for the items listed next?
# Assay Method Text: calcein-AM signal in unstimulated myeloma cells – cell-based, calcein-AM fluorescence, 48 h, PK04 Diversity Set, profiling panel (AID 1166);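 further: cells grown under basal conditions without added stimulus; test concentration not given here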
# Run Parameters: RPMI8226 myeloma viability, higher = more signal
Numbers only.

In the examples that follow, each entry is paired with its recorded z-score.
CN1C(=O)C2C=CC(C(O)COCc3ccccc3)N(Nc3ccccc3)C2C1=O (centres undefined) = 0.192
CC(C)C(CO)N1C(=O)[C@@H]2[C@H]3C(=O)OCC=C[C@H]3OC23C=CCN(CCN2CCOCC2)C(=O)[C@@H]13 (some centres undefined) = 0.372
CC(C)N1CC=CC23O[C@@H]4C=CCOC(=O)[C@@H]4[C@H]2C(=O)N(CCCCCCO)[C@@H]3C1=O (some centres undefined) = 0.255

Now turn to the next compound.
Req: # query: z-score of entry C=CCC(OC(C)=O)[C@@H]1[C@@H](N(Cc2ccc(-c3cccc(C(F)(F)F)c3)o2)C(=O)c2cccc3ccccc23)c2cc(OCCCO)ccc2N1C(=O)c1ccc(-c2ccccc2)cc1 (some centres undefined)
Resp: -1.23
